Biological target: CD16α (FcγRIIIa) V158 allotype, CD16α-6His (UniProt P08637 P08637:17-208)
Sequence (P08637 17-208, one chain of several): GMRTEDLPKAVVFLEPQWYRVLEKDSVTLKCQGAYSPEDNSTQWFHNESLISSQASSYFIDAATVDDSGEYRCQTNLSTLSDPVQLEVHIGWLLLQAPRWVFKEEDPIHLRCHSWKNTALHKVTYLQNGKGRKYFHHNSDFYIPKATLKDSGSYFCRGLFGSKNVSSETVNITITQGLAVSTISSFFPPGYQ
Test: filter; 38±26 nM, n=4, dot blot; broad unspecific cell binding in FACS
Conditions: tags: 6His
property-name: pKd
Answers are plain numbers, as −log10 of the molar value.

Request: Kindly indicate its recorded pKd. Item: CLN0018 (ssDNA) DNA: GGAGGGAAAAGTTATCAGGCATCACGTGGTGGGCAAATAACCGGTTGGGGTGGGTCGAGGGATTAGTTTTGGAGTACTCGCTCC
Result: 7.42
